Hey, just so you know, these numbers are from PubChem BioAssay (NCI).

Tested on: TK-10 renal
Assay details: NCI tumour cell line growth inhibition, 48 h
GI50 overview

Compound: N/C(=N/O)NOCCC(N)C(=O)O (configuration not stated)
Measured on: TK-10 renal
GI50: > 100 µM

Compound: COc1cccc(/C=C/C(=O)c2cc3c(N)c(C(=O)Nc4ccccc4)sc3nc2C)c1
Measured on: TK-10 renal
GI50: 1.56 µM

Kindly note the recorded GI50 for CC(C)Cc1cc(-c2cccn2C)c(C#N)c(=O)[nH]1 , which is > 100 µM

Recorded GI50 (compound Nc1ncnc2c1ncn2Cc1ccc(CCl)cc1 ): 18.1 µM

Briefly, GI50 measured for C=C1C(=O)O[C@H]2[C@H]1CC/C(COC(=O)NCCc1ccc(Br)cc1)=C\CC[C@@]1(C)O[C@@H]21 : 1.73 µM

Quick note, GI50 for [N-]=[N+]=NCCCn1c2c(c3ccccc3c1=O)C(=O)c1cc3c(cc1-2)OCO3 landed at 45.3 µM

Entry CCCCCCCN(CCCCCCC)C(=N)c1ccc(OC)c2ccccc12 ; GI50 = 1.46 µM

###

System: MCF7 breast
Assay details: NCI tumour cell line growth inhibition, 48 h
Measurement name: TGI

Molecule: COc1cc2ccnc3c2c(c1OC)N(C)C=C3
Measurement name: TGI
Result: 44.6 µM

Molecule: CCN1CC2(CO)CCC(OC)C34C5CC6C(OC)CC(O)(C5C6OC)C(O)(C(OC)C23)C14 (configuration not stated)
Measurement name: TGI
Result: > 375 µM

Molecule: CS(=O)(=O)Nc1cc(-c2ccc3ncnc(Nc4ccc(OCc5ccccn5)c(Cl)c4)c3c2)cnc1Cl
Measurement name: TGI
Result: > 100 µM

Molecule: CCN1C(=O)N(CC)C2C1NN=c1s/c(=C\c3ccc(Br)cc3)c(=O)n12 (configuration not stated)
Measurement name: TGI
Result: > 100 µM

Consider O=C(Nc1cccc(Cl)c1)Nc1cc(C(F)(F)F)ccc1Cl . Its measured TGI is 18.1 µM

The recorded TGI for CN1CCN(CCCn2c3c(sc4ncccc43)c(=O)n3nnc(-c4ccccc4)c23)CC1 is 3.16 µM

In plain terms, COc1cc2c(cc1OC)C/C(=N\O)c1cc(OC)c(OC)cc1/C=C\2 has a documented TGI of > 96.4 µM

TGI recorded for this molecule, CN(CCCNC(=O)c1[nH]nc2c1ccc1ccccc12)CCCNC(=O)c1[nH]nc2c1ccc1ccccc12 , is 28.7 µM

# TGI of Cc1cc2nc3c(C)c4ccccc4c(C)n3c2cc1C = > 10 µM

Entry COc1ccc2nc3c(nc2c1)C(C)(C)C=C3c1ccc(Br)cc1 , TGI reported as > 100 µM

Please fill in: TGI reported for C#Cc1cccc(NC(=O)C2CCCCN2C(=O)CCl)c1 (configuration not stated) = > 82.5 µM

Lab book: TGI of OCC1OC(N2CCN(C3OC(CO)C(O)C(O)C3O)CC2)C(O)C(O)C1O (configuration not stated) noted as > 100 µM

###

Test system: EKVX NSCLC
Assay details: NCI tumour cell line growth inhibition, 48 h
Assign Fulfilled whenever TGI does not fall below 30 µM; assign Not fulfilled whenever it does.

Compound: O=C(NC1CCCCC1)N1CCNC1=S
Classification: Fulfilled
--
Compound: O=S1(=O)OCCOS(=O)(=O)C1C1c2ccccc2-c2ccccc21
Classification: Fulfilled
--
Compound: Cn1cnc([N+](=O)[O-])c1Sc1nnc(-c2ccc(Cl)cc2)n1C
Classification: Not fulfilled
--
Compound: O=c1[nH]c(C2CCCCC2)nc2ccc(Cl)cc12
Classification: Fulfilled
--
Compound: O=C(NC12CC3CC(CC(C3)C1)C2)n1cnc2c(Cl)ncnc21
Classification: Fulfilled
--
Compound: COC(=O)C12CCC(CC1=O)C2(C)C (stereo unspecified)
Classification: Fulfilled

// inclusive: TGI at least 30 µM? input: c1ccc(C(OCCN2CC3CCC(C2)N3)c2ccccc2)cc1
Fulfilled

Test whether the compound COc1ccc2cc(CNCCOCCOCCNCc3ccc4cc(OC)ccc4c3)ccc2c1 records TGI of 30 µM or higher.
Not fulfilled

Confirm if TGI reported for the compound Cc1ccc2c(c1)n([O-])c(C(F)(F)F)c(C(=O)c1ccco1)[n+]2=O is 30 µM or above.
Not fulfilled
